Values from patent US20260337177A1

- Tested on: HepG2 cells
- assay.overview: HepG2 cell growth inhibition
- Format: cell-based
- test.settings: Homo sapiens, FIG. 25A
metric: pIC50
One number for each entry, as −log10 of the molar value.

IN: Provide the documented pIC50 with HepG2 cells as the system for O=C(CCl)c1c[nH]c2cc(Cl)c(OCc3cccc(C(F)(F)F)c3)cc12 [Compound 22]
OUT: 5.62

====

- assay.overview: AML12 normal liver cell growth inhibition (CCK8)
- Type: cell-based
- test.settings: mouse, aml12 cells; "at 10 M"; read-out: Inhibitory rate of AML cells
metric: inhibition at 10 µM (%)
Give bare numbers, in %.

IN: Would you kindly share the measured inhibition at 10 µM for O=C(CCl)c1c[nH]c2cc(Cl)c(OCc3ccc4ccccc4c3)cc12 ?
OUT: 32

====

- Tested on: AML12 cells
- assay.overview: AML12 normal liver cell growth inhibition (CCK8)
- Type: cell-based
- test.settings: 10 μM; 3 days
metric: Inhibitory rate, AML12 (inhibitory percentage of AML12 cell growth) (%)
Answers are plain numbers, in %.

Below are worked cases with known answers.
{"entry.smiles": "O=C(CCl)NCc1c[nH]c2cc(Cl)c(OCc3cccc(C(F)(F)F)c3)cc12", "measure.unit": "%", "quantitative.result": 41.1}
{"entry.smiles": "O=C(CCl)c1c[nH]c2cc(Cl)c(OCc3cccc(C(F)(F)F)c3)cc12", "measure.unit": "%", "quantitative.result": 22.1}

// switching to the query compound
IN: Consider the compound shown here: COc1cc2[nH]cc(C(=O)CCl)c2cc1OCc1ccccc1 What is its recorded Inhibitory rate, AML12 (inhibitory percentage of AML12 cell growth)?
OUT: 46.1

====

- System: TEADs
- assay.overview: TEAD-specific 8×GTIIC-luciferase reporter assay
- Type: cell-based
- test.settings: 10 μM; 8×GTIIC-luciferase; read-out: Luciferase reporter assay inhibitory rate
Give measured inhibition at 10 µM for each item. Keep answers brief.
One number for each entry, in %.

{"entry.smiles": "O=C(CCl)c1c[nH]c2cc(Cl)c(OCc3cccc4ccccc34)cc12", "metric": "inhibition at 10 µM", "measure.unit": "%", "quantitative.result": 69.4}
{"entry.smiles": "C=C(CN(C)C)C(=O)NCc1c[nH]c2cc(Cl)c(OCc3ccccc3)cc12", "metric": "inhibition at 10 µM", "measure.unit": "%", "quantitative.result": 71.8}

IN: Please provide the recorded inhibition at 10 µM for Clc1cc2[nH]ccc2cc1OCc1ccccc1 , tested on TEADs.
OUT: 68.3

====

- Tested on: TEADs
- assay.overview: TEAD-specific 8×GTIIC-luciferase reporter assay
- Assay type: cell-based
- test.settings: 10 μM; 8×GTIIC-luciferase; read-out: Luciferase reporter assay inhibitory rate
- Procedure: A series of compounds featuring a chloromethyl ketone moiety were synthesized (Schemes 1-4). The inhibitory rate of this series of compounds was tested using 8×GTIIC-luciferase reporter assay at 10 μM. Next, the inhibition of TEAD transcription activity of compounds was tested varying the dosage using the 8×GTIIC-luciferase reporter assay. […] The aim was to determine whether its inhibition of TEAD transcription can lead to downregulation of the YAP-TEAD target genes. […]
Would you mind telling me the reported inhibition at 10 µM of each entry?
Numbers only, in %.

{"entry.smiles": "N#C/C(=C\\c1c[nH]c2cc(Cl)c(OCc3cccc4ccccc34)cc12)C(N)=O", "measure.unit": "%", "inhibition at 10 µM": 51.3}
{"entry.smiles": "O=C(CCl)NCc1c[nH]c2cc(Cl)c(OCc3cccc4ccccc34)cc12", "measure.unit": "%", "inhibition at 10 µM": 81.5}

Batch lookup, inhibition at 10 µM per entry.
1. O=C(CCl)c1c[nH]c2ccc(OCc3ccc4ccccc4c3)cc12
2. C=CC(=O)NCc1c[nH]c2cc(Cl)c(OCc3cccc4ccccc34)cc12
3. O=C(CCl)c1c[nH]c2cc(Cl)c(OCc3ccc4ccccc4c3)cc12

OUT:
5.3
10.6
95.6

Would you mind giving inhibition at 10 µM for every compound in the list below?
1. COc1cc2[nH]cc(C(=O)CCl)c2cc1OCc1ccccc1
2. N#C/C(=C\c1c[nH]c2cc(Cl)c(OCC3CCC(F)(F)CC3)cc12)C(N)=O
3. O=C(CCl)c1c[nH]c2ccc(OCc3ccccc3)cc12

OUT:
1: 53.7; 2: 60.1; 3: 20.5

====

- Tested on: Huh7 cells
- assay.overview: Huh7 cell proliferation assay (CCK8)
- Format: cell-based, human
- test.settings: Homo sapiens, Huh-7, 72 h; 3 days; CCK8; mean ± SD of three independent experiments; read-out: Cell proliferation assay IC50, Huh7
- Protocol: CCK8 assay kit was used to determine antiproliferative activity of synthesized compounds against Huh7 cell line. First, Huh7 cells were seeded into 96-well plates at a density of 3000 cells/well and incubated overnight. Cells were then co-incubated with compounds at 8 concentrations for 72 h. Then, the cell proliferation was determined by the CCK8 kit according to the standard protocol. Experiments were performed in triplicate.
For each entry below, report its pIC50 value.
Numbers only, as −log10 of the molar value.

Check out these entries, answers already filled in.
{"entry.smiles": "C=CC(=O)NCc1c[nH]c2cc(Cl)c(OCc3cccc4ccccc34)cc12", "quantitative.result": 4.84}
{"entry.smiles": "O=C(CCl)c1c[nH]c2cc(Cl)c(OCc3ccc(C(F)(F)F)c(F)c3)cc12", "quantitative.result": 5.74}

Hi, could you look up pIC50 for each item in my list?
1. O=C(CCl)NCc1c[nH]c2cc(Cl)c(OCc3ccc4ccccc4c3)cc12
2. O=C(CCl)c1c[nH]c2cc(Cl)c(OCc3cccc(C(F)(F)F)c3)cc12

OUT:
[5.24, 6.05]

Would you mind giving pIC50 for every compound in the list below?
1. O=C(CCl)c1c[nH]c2cc(Cl)c(OCc3ccccc3)cc12
2. O=C(CCl)c1c[nH]c2ccc(OCc3ccccc3)cc12
3. O=C(CCl)NCc1c[nH]c2cc(Cl)c(OCc3cccc(C(F)(F)F)c3)cc12
4. O=C(CCl)NCc1c[nH]c2cc(Cl)c(OCc3cccc4ccccc34)cc12
5. O=C(CCl)c1c[nH]c2cc(Cl)c(OCc3ccc4ccccc4c3)cc12
6. O=C(CCl)c1c[nH]c2cc(Cl)c(OCc3ccc(C(F)(F)F)cc3)cc12
7. COc1cc2[nH]cc(C(=O)CCl)c2cc1OCc1cccc2ccccc12

OUT:
1: 5.57; 2: 4.98; 3: 5.08; 4: 6.10; 5: 5.64; 6: 4.77; 7: 5.60

====

- Test system: Huh7 cells
- assay.overview: Huh7 cell proliferation assay (CCK8)
- Assay type: cell-based, human
- test.settings: Homo sapiens, Huh-7, 72 h; 3 days; CCK8; mean ± SD of three independent experiments; read-out: Cell proliferation assay IC50, Huh7
pIC50: −log10 of the molar value.
Each entry gets no (0) if its pIC50 stays under 5, and yes (1) if its pIC50 is 5 or above.

{"entry.smiles": "N#C/C(=C\\c1c[nH]c2cc(Cl)c(OCc3ccccc3)cc12)C(N)=O", "qualitative.label": "no (0)"}
{"entry.smiles": "N#C/C(=C\\c1c[nH]c2cc(Cl)c(OCc3ccc4ccccc4n3)cc12)C(N)=O", "qualitative.label": "no (0)"}
{"entry.smiles": "C=CC(=O)NCc1c[nH]c2cc(Cl)c(OCc3ccccc3)cc12", "qualitative.label": "no (0)"}
{"entry.smiles": "O=C(CCl)c1c[nH]c2cc(Cl)c(OCc3cccc4ccccc34)cc12", "qualitative.label": "yes (1)"}
{"entry.smiles": "N#C/C(=C\\c1c[nH]c2cc(Cl)c(OCC3CCC(F)(F)CC3)cc12)C(N)=O", "qualitative.label": "yes (1)"}
{"entry.smiles": "O=C(CCl)c1c[nH]c2ccc(OCc3ccc4ccccc4c3)cc12", "qualitative.label": "no (0)"}
{"entry.smiles": "O=C(CCl)NCc1c[nH]c2cc(Cl)c(OCc3ccccc3)cc12", "qualitative.label": "yes (1)"}
{"entry.smiles": "Clc1cc2[nH]ccc2cc1OCc1ccccc1", "qualitative.label": "no (0)"}

IN: Could you verify whether the entry C=CC(=O)NCc1c[nH]c2cc(Cl)c(OCc3ccc4ccccc4c3)cc12 shows pIC50 of no less than 5?
OUT: no (0)
